SYSTEM TESTED: T1, B7-H3 on tumour cells (MDA-MB-468 cells, N87 cells) (UniProt Q5ZPR3 29-534, limits assumed)
T1 construct: whole, on cells
T1 sequence (looked up): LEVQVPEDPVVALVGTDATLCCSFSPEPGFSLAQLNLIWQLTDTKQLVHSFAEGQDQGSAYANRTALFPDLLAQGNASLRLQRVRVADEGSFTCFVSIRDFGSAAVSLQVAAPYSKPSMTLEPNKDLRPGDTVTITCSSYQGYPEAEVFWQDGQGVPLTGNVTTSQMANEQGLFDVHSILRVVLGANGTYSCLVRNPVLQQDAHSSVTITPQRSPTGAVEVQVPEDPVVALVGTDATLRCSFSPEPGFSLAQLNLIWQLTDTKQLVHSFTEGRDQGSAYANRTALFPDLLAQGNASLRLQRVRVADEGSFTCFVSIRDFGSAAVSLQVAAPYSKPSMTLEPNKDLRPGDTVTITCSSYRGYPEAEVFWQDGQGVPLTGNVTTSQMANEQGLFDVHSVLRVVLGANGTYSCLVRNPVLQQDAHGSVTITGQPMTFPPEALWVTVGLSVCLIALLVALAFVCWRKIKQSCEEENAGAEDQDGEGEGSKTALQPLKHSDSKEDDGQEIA
ASSAY SUMMARY: flow cytometry on MDA-MB-468 cells, PE goat anti-human IgG Fc secondary; blank 0.9% in the positive gate
% of cells in positive gate V1-R at 11.11 nM listing for selected binders.
MEASURED ATTRIBUTE: % of cells in positive gate V1-R at 11.11 nM

BINDER: control antibody M30-H1-L4 (antibody, human IgG1, kappa, V domains shown, Control anti-B7-H3 antibody; also called HIL4) VH: QVQLVQSGAEVKKPGSSVKVSCKASGYTFTNYVMHWVRQAPGQGLEWMGYINPYNDDVKYNEKFKGRVTITADESTSTAYMELSSLRSEDTAVYYCARWGYYGSPLYYFDYWGQGTLVTVSS VL: EIVLTQSPATLSLSPGERATLSCRASSRLIYMHWYQQKPGQAPRPLIYATSNLASGIPARFSGSGSGTDFTLTISSLEPEDFAVYYCQQWNSNPPTFGQGTKVEIKR
OBS VALUE: 97.2%

BINDER: antibody V1 (antibody, human IgG1, kappa, V domains shown, Humanized from chimeric antibody M1; expressed in HEK293F cells; also called humanized antibody V1) VH: EVQLVQSGAEVKKSGESLKISCKASGYTFTDYDINWVRQMPGKGLEWMGWIFPGDDTTKYNEKFKGQVTISADKSTNTAYLQWSSLKASDTAMYYCARSPSFDYWGQGTLVTVSS VL: QIVLTQSPGTLSLSPGERATLSCSASSTIGFMYWYQQKPGQAPRRWIYDTSKLASGVPDRFSVSGSGTDYTLTISRLEPEDFAVYYCHQRSSYPTFGQGTKVEIKR
OBS VALUE: 99.5%

BINDER: antibody M1 (antibody, human IgG1, kappa, V domains shown, Chimeric antibody, murine variable regions on the IgG1 constant region; expressed in HEK293F cells; also called chimeric antibody M1) VH: QVQLQQSGPELVKPGASVRISCKASGYTFTDYDINWVQQRPGQGLEWIGWIFPGDDTTKYNEKFKGRATLTADKSSNTAYMQLNGLTSENSAVYFCARSPSFDYWGQGTLVTVSS VL: QIVLTQSPAIMSASPGERVTMTCSASSTIGFMYWYQQKPGTSPKRWIYDTSKLASGVPARFSVSGSGTSYSLTISSMEAEDAATYYCHQRSSYPTFGGGTKLEIKR
OBS VALUE: 99.5%
